Tested on: HCV 1b-BB7 subgenomic replicon
assay-explanation: microbe, parasite or virus in culture
Assay type: cell-based, HCV genotype 1b
applied-conditions: Hepatitis C virus, stable replicon, strain 1b BB7, 5% FBS + 40% human plasma; read-out: 1b BB7 5% FBS + 40% Human Plasma EC50
property-name: log10(EC50) (log10 of the value in nM)
In our notation, the value equals log10 of EC50 in nM.

The following molecules have reported results that may help.
CC(C)(O)C(=O)CCN(c1cc2oc(-c3ccc(F)cc3)c(-c3ncc[nH]3)c2cc1C1CC1)S(C)(=O)=O [Example 106]: 2.34
CS(=O)(=O)CCN(c1cc2oc(-c3ccc(F)cc3)c(-c3ncc[nH]3)c2cc1C1CC1)S(C)(=O)=O [Example 87]: 1.76
CS(=O)(=O)N(CCCS(N)(=O)=O)c1cc2oc(-c3ccc(F)cc3)c(C3=NOCCN3)c2cc1C1CC1 [Example 124]: 2.99
CS(=O)(=O)N(CC1CCCO1)c1cc2oc(-c3ccc(F)cc3)c(-c3ncc[nH]3)c2cc1C1CC1 (centres unmarked) [Example 75]: 3.06
CS(=O)(=O)N(CCCCO)c1cc2oc(-c3ccc(F)cc3)c(-c3ncc[nH]3)c2cc1C1CC1 [Example 5]: 1.34
CS(=O)(=O)N(CCCCC(F)=C(F)F)c1cc2oc(-c3ccc(F)cc3)c(C3=NOCCN3)c2cc1C1CC1 [Example 120]: 2.28

Prompt: Give the measured log10(EC50) of CS(=O)(=O)N(CCC/C(N)=N/O)c1cc2oc(-c3ccc(F)cc3)c(-c3ncc[nH]3)c2cc1C1CC1 [Example 176] .
Completion: 1.90

Prompt: Quick one: log10(EC50) for CS(=O)(=O)N(Cc1cnc(-c2cccc(CO)c2)s1)c1ccc2c(-c3ncc[nH]3)c(-c3ccccc3)oc2c1 [Example 28] ?
Completion: 4.00

Prompt: Which log10(EC50) value belongs to CS(=O)(=O)N(CCO)c1cc2oc(-c3ccc(F)cc3)c(-c3ncc[nH]3)c2cc1C1CC1 [Example 109] ?
Completion: 2.26

----------
Test system: HCV NS5B polymerase 1a-H77-C316Y
assay-explanation: biochemical
Parameters: species or system HCV genotype 1a
applied-conditions: ratio of enzyme IC50s, 1a H77-C316Y / 1a H77
property-name: C316Y/1a Fold Resistance (fold)
Answer with a number only, understood to be in fold.

Please review the entries below; each comes with its answer.
CC(C)(O)CCCN(c1cc2oc(-c3ccc(F)cc3)c(-c3ncc[nH]3)c2cc1C1CC1)S(C)(=O)=O [Example 99]: 13
CCN(CC)CCCN(c1cc2oc(-c3ccc(F)cc3)c(C3=NOCCN3)c2cc1C1CC1)S(C)(=O)=O [Example 131]: 29
CCCN(c1cc2oc(-c3ccc(F)cc3)c(-c3ncc[nH]3)c2cc1C1CC1)S(C)(=O)=O [Example 64]: 34
CS(=O)(=O)N(Cc1sc(Br)nc1C(F)(F)F)c1ccc2c(-c3ncc[nH]3)c(-c3ccccc3)oc2c1 [Example 22]: 1
CS(=O)(=O)N(CCCCO)c1cc2oc(-c3ccc(F)cc3)c(C3=NOCN3)c2cc1C1CC1 [Example 16]: 12
CS(=O)(=O)N(CCCc1noc(=O)[nH]1)c1cc2oc(-c3ccc(F)cc3)c(C3=NOCCN3)c2cc1C1CC1 [Example 182]: 4

Prompt: So what does the record say about C316Y/1a Fold Resistance for CC(C)=CCN(c1cc2oc(-c3ccc(F)cc3)c(-c3ncc[nH]3)c2cc1C1CC1)S(C)(=O)=O [Example 54] ?
Completion: 43

Prompt: Bench note: what C316Y/1a Fold Resistance did CS(=O)(=O)N(CCCc1nnn[nH]1)c1cc2oc(-c3ccc(F)cc3)c(C3=NOCCN3)c2cc1C1CC1 [Example 180] show?
Completion: 6

Prompt: Given the entry [2H]C1([2H])NC(c2c(-c3ccc(F)cc3)oc3cc(N(CCCCS(C)(=O)=O)S(C)(=O)=O)c(C4CC4)cc23)=NO1 [Example 150] , report its measured C316Y/1a Fold Resistance.
Completion: 11

Prompt: Looking for the measured C316Y/1a Fold Resistance of COc1ccc(-c2nn3ccc(-c4cc(C(=O)NC5(c6ccccc6)CC5)ccc4C)cc3c2C2=NOCCN2)cc1 [Example 19] , can you help?
Completion: 115

Prompt: Tell me the measured C316Y/1a Fold Resistance of CCS(=O)(=O)CCN(c1cc2oc(-c3ccc(F)cc3)c(C3=NOCCN3)c2cc1C1CC1)S(C)(=O)=O [Example 142] , please.
Completion: 8

Prompt: Recorded C316Y/1a Fold Resistance of CC(C)(C#N)CCCCN(c1cc2oc(-c3ccc(F)cc3)c(C3=NOCCN3)c2cc1C1CC1)S(C)(=O)=O [Example 115] , please.
Completion: 10

Prompt: Report C316Y/1a Fold Resistance for CS(=O)(=O)N(CCCc1nsc(=O)[nH]1)c1cc2oc(-c3ccc(F)cc3)c(-c3ncc[nH]3)c2cc1C1CC1 [Example 178] please.
Completion: 64

Prompt: Param item = CS(=O)(=O)NCCCN(c1cc2oc(-c3ccc(F)cc3)c(-c3ncc[nH]3)c2cc1C1CC1)S(C)(=O)=O [Example 95] ; retrieve measured C316Y/1a Fold Resistance.
Completion: 19

----------
experimental-system: HCV NS5B polymerase 1a-H77-C316Y (Hepatitis C virus genotype 1a, UniProt P27958, C2736Y)
Construct: six-histidine tag
Sequence (P27958 2421-2990 C2736Y): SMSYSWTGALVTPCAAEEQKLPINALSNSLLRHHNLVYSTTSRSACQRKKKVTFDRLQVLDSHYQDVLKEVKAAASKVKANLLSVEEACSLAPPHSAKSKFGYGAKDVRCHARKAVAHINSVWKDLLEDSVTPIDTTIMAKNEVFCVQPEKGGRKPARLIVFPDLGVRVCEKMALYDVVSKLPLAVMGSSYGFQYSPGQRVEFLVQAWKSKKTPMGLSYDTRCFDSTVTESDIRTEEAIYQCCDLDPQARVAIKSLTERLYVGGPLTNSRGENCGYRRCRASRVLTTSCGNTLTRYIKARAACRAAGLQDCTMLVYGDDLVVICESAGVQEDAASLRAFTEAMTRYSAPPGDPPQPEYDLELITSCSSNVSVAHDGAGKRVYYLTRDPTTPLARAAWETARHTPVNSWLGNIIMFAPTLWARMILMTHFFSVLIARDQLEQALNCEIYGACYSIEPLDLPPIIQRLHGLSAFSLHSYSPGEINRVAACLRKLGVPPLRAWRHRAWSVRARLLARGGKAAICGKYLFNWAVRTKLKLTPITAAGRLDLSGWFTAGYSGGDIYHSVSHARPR
assay-explanation: biochemical
property-name: log10 of IC50 (log10 of the value in nM)
Note the log scale: values are log10 of IC50 expressed in nM.

Study these solved cases before continuing.
CCN(c1cc2oc(-c3ccc(F)cc3)c(-c3ncc[nH]3)c2cc1C1CC1)S(C)(=O)=O: 2.34
[2H]C1([2H])NC(c2c(-c3ccc(F)cc3)oc3cc(N(CCCCS(C)(=O)=O)S(C)(=O)=O)c(C4CC4)cc23)=NO1: 1.62
CC(C)(O)C(O)CCN(c1cc2oc(-c3ccc(F)cc3)c(-c3ncc[nH]3)c2cc1C1CC1)S(C)(=O)=O (stereo not shown): 1.61
CS(=O)(=O)N(CCC/C(N)=N/O)c1cc2oc(-c3ccc(F)cc3)c(-c3ncc[nH]3)c2cc1C1CC1: 2.13

Prompt: What log10 of IC50 value was documented for this compound, CS(=O)(=O)N(CCCS(=O)(=O)c1ccccc1)c1cc2oc(-c3ccc(F)cc3)c(-c3ncc[nH]3)c2cc1C1CC1 ?
Completion: 1.62

Prompt: Consider the compound CS(=O)(=O)N(CCN)c1cc2oc(-c3ccc(F)cc3)c(-c3ncc[nH]3)c2cc1C1CC1 and give its measured log10 of IC50.
Completion: 3.30

Prompt: GET /values?readout=log10 of IC50&item= CC(C)(O)CCN(c1cc2oc(-c3ccc(F)cc3)c(C3=NOCCN3)c2cc1C1CC1)S(C)(=O)=O
Completion: 2.05

----------
experimental-system: HCV NS5B polymerase 1b BK strain (Hepatitis C virus genotype 1b, UniProt P26663)
Construct: six-histidine tag; made in house; host or cells: E. coli
Sequence (P26663 2420-2989): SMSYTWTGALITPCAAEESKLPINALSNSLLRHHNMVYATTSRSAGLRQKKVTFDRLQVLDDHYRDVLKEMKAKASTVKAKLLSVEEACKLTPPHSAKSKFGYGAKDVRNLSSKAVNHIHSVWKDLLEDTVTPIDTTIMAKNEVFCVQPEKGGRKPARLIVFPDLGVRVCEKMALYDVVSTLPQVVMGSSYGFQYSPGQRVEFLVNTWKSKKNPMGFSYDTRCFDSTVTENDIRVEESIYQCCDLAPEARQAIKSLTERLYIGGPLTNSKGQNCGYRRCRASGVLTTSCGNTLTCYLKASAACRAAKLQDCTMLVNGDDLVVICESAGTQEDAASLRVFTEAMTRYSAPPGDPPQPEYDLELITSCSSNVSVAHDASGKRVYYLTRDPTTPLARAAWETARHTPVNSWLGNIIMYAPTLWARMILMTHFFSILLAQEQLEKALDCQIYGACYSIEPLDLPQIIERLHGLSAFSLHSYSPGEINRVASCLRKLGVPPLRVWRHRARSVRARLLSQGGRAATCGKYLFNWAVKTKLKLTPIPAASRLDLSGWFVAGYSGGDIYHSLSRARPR
assay-explanation: HCV NS5B polymerase enzymatic inhibition assay, strain 1b BK
Type: biochemical
applied-conditions: enzyme, strain 1b BK; read-out: HCV Polymerase Strain 1b BK IC50
property-name: IC50 (µM)
Form entry: value (µM) — number only.

CS(=O)(=O)N(CN1C(=O)c2ccccc2C1=O)c1cc2oc(-c3ccc(F)cc3)c(-c3ncc[nH]3)c2cc1C1CC1: 3
CS(=O)(=O)N(CC1CC1)c1cc2oc(-c3ccc(F)cc3)c(-c3ncc[nH]3)c2cc1C1CC1: 0.245
CC(C)CCN(c1cc2oc(-c3ccc(F)cc3)c(C3=NOCCN3)c2cc1C1CC1)S(C)(=O)=O: 0.105

Then there is this compound:
Prompt: Can you look up IC50 on HCV NS5B polymerase 1b BK strain (Hepatitis C virus genotype 1b, UniProt P26663) for CS(=O)(=O)N(CCCCO)c1cc2oc(-c3ccc(F)cc3)c(C3=NOCN3)c2cc1C1CC1 ?
Completion: 0.018

----------
Test system: HCV 1b-BB7 subgenomic replicon
assay-explanation: microbe, parasite or virus in culture
Assay type: cell-based, HCV genotype 1b
applied-conditions: Hepatitis C virus, stable replicon, strain 1b BB7, 5% FBS, no human plasma; read-out: 1b BB7 5% FBS EC50
property-name: pEC50
Reminder that pEC50 is minus the log10 of a molar concentration.

Illustrative cases are given below, each with its answer.
Cn1ccc2cc(-c3ncc(CN(c4ccc5c(-c6ncc[nH]6)c(-c6ccccc6)oc5c4)S(C)(=O)=O)s3)ccc21: 8.09
CS(=O)(=O)Nc1cc2oc(-c3ccc(F)cc3)c(-c3ncc[nH]3)c2cc1C1CC1: 7.74
CNC(=O)CCCN(c1cc2oc(-c3ccc(F)cc3)c(-c3ncc[nH]3)c2cc1C1CC1)S(C)(=O)=O: 7.96

Consider now this further molecule.
Prompt: Looking for the measured pEC50 of CS(=O)(=O)N(CC#N)c1cc2oc(-c3ccc(F)cc3)c(-c3ncc[nH]3)c2cc1C1CC1 , can you help?
Completion: 7.84
